Protein target, amino acids: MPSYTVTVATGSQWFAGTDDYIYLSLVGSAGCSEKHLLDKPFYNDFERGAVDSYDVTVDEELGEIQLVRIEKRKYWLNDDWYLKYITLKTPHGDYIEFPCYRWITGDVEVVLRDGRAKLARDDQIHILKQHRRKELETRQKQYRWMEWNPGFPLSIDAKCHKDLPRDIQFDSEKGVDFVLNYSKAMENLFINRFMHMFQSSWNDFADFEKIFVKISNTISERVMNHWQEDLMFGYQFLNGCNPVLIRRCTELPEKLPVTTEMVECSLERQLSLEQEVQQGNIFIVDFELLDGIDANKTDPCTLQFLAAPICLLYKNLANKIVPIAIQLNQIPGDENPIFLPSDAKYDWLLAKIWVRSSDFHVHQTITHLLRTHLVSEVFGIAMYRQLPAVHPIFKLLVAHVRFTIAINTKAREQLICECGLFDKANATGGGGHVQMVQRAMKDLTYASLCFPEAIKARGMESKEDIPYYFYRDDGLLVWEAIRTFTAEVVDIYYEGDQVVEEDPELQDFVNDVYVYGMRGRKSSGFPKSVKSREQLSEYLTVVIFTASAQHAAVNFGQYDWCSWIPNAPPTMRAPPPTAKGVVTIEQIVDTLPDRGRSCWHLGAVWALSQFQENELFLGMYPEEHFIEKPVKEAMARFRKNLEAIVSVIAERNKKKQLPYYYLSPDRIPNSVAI
pIC50: −log10 of the molar value.
Recorded endpoint: pIC50

- CC(=O)N(O)C(C)c1ccc(CC(C)C)cc1 (stereo not drawn): 5.98
- CCOc1ccccc1NC(=O)N(C)C: 4.84
- COc1ccc2cc(C(C)N(O)C(C)=O)ccc2c1 (stereo not drawn): 5.89

* * *

Recorded endpoint: melting point

• C#CCNC(=O)c1cc(C(C)(C)C)c(O)c(C(C)(C)C)c1 = 178.5 to 180 °C
• COC(=O)CNC(=O)c1cc(C(C)(C)C)c(O)c(C(C)(C)C)c1 = 130 to 132 °C
• CC(C)(C)c1cc(C=C2SC(=S)N(N)C2=O)cc(C(C)(C)C)c1O = 244.5 to 246.5 °C
• CN(C)C(=O)Nc1ccccc1C(=O)O = 158 to 159.5 °C
• C=CCNC(=O)c1cc(C(C)(C)C)c(O)c(C(C)(C)C)c1 = 182 to 183.5 °C
• CCOc1ccccc1NC(=O)Nc1ccc([N+](=O)[O-])cc1 = 178 to 181 °C
• CCOc1ccccc1NC(=O)N(C)C = 71.5 to 72.5 °C
• COC(=O)C(Cc1c[nH]cn1)NC(=O)c1cc(C(C)(C)C)c(O)c(C(C)(C)C)c1 (centres unmarked) = 117 to 119 °C

* * *

- Tested on: COX-2 human recombinant enzyme (Homo sapiens, UniProt P35354)
- Sequence (P35354 18-604): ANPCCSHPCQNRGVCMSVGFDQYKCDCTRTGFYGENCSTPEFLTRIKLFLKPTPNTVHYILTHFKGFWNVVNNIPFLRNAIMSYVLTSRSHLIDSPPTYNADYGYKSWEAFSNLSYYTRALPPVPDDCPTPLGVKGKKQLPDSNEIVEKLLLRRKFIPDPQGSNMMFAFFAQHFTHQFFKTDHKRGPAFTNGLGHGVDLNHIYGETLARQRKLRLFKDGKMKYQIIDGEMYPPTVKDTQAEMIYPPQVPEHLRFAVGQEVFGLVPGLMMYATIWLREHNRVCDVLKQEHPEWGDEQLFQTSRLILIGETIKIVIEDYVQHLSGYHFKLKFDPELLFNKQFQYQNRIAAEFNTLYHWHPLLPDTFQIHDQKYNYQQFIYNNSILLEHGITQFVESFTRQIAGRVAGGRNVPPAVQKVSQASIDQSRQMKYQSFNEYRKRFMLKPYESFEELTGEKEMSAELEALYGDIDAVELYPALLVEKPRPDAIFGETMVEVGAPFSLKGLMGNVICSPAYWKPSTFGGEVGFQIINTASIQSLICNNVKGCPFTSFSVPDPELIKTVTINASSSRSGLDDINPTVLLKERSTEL
- Assay info: Fluorometric COX-2 inhibitor screening kit
- Particulars: IC50 ± standard error
Recorded endpoint: IC50

• COc1ccc2c(c1)c(CNC(=O)NO)c(C)n2C(=O)c1ccc(Cl)cc1 = 18.3 µM
• CC(=O)N(O)C(C)c1ccc(CC(C)C)cc1 (centres unmarked) = 36.2 µM
• O=C(NO)NCc1ccccc1Nc1c(Cl)cccc1Cl = 5.26 µM
• CCOc1ccccc1NC(=O)Nc1ccc([N+](=O)[O-])cc1 = > 100 µM
• CN(C)C(=O)Nc1ccccc1C(=O)O = > 100 µM
